Assay: Vascular reactivity: depressor response to NO-mimetic sodium nitroprusside (SNP) infusion
Assay type: in vivo, rat
Conditions: treatment alone at maximal blockade (L-NAME 30 mg/kg); SNP 1-30 μg/kg/min i.v.
Experimental: Determination of MAP: Three days after surgery, MAP was recorded (PowerLab/8s DAS, ADInstruments, Milford, Mass.). […] An equilibration period of at least 1 hour was allowed prior to any experimentation to establish a steady baseline. […] Mean arterial pressure (MAP) and heart rate (HR) were calculated as an average over five minutes for steady state conditions and 10 seconds for transient drug responses. […]
QUANTITY: depressor response to SNP

COC(=O)[C@@H](N)CCCNC(=N)N[N+](=O)[O-] [L-NAME, N^ω-nitro-L-arginine-methyl ester]
enhanced
COc1cc2nc(N3CCN(C(=O)C4CCCO4)CC3)nc(N)c2cc1OC (stereo not shown) [Terazosin, terazosin]
enhanced
